Target: pancreatic lipase (PL) (Sus scrofa)
Construct: lipase (porcine pancreas); purchased Shanghai Yuanye Co., Ltd., Shanghai, China; host or cells: porcine pancreas
Sequence (P00591 1-450): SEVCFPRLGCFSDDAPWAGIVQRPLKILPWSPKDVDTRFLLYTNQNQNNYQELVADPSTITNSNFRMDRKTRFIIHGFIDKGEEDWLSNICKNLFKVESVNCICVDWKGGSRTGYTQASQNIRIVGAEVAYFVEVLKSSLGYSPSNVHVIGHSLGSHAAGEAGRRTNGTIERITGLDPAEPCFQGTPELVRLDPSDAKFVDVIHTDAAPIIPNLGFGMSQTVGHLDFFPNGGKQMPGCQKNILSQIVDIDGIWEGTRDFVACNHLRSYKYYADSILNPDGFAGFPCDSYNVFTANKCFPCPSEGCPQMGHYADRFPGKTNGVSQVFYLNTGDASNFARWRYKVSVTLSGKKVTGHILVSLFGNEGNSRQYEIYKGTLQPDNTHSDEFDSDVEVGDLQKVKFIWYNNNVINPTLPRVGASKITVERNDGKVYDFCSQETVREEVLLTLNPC
Assay: FT-IR spectroscopy secondary structure analysis of PL-porphyrin complex
Design: species or system porcine
Settings: PL:porphyrin molar ratio 1:2; PL alone 7.78 ± 0.02
Readout label: β-Antiparallel of PL in complex (%)

Oc1ccc(-c2c3nc(c(-c4ccc(O)cc4)c4ccc([nH]4)c(-c4ccc(O)cc4)c4nc(c(-c5ccc(O)cc5)c5ccc2[nH]5)C=C4)C=C3)cc1 = 8.32

1: Nc1ccc(-c2c3nc(c(-c4ccc(N)cc4)c4ccc([nH]4)c(-c4ccc(N)cc4)c4nc(c(-c5ccc(N)cc5)c5ccc2[nH]5)C=C4)C=C3)cc1
2: O=C([O-])c1ccc(C2=C3C=CC(=N3)C(c3ccc(C(=O)[O-])cc3)=C3C=CC(=N3)C(=c3ccc(=C([O-])[O-])cc3)c3ccc([n-]3)C(c3ccc(C(=O)[O-])cc3)=C3C=CC2=N3)cc1.[67Cu+2].[H+].[H+].[H+].[H+]
3: O=C(O)c1ccc(-c2c3nc(c(-c4ccc(C(=O)O)cc4)c4ccc([nH]4)c(-c4ccc(C(=O)O)cc4)c4nc(c(-c5ccc(C(=O)O)cc5)c5ccc2[nH]5)C=C4)C=C3)cc1
Problem: Order these by β-Antiparallel of PL in complex, descending, and give the full ranking. Labels, ranked as asked.
Result: 1, 3, 2
(1: 8.26%, 3: 4.82%, 2: 0.87%)

====

Target: pancreatic lipase (PL) (Sus scrofa, UniProt P00591)
Construct: lipase (porcine pancreas); purchased Shanghai Yuanye Co., Ltd., Shanghai, China; host or cells: porcine pancreas
Test: FT-IR spectroscopy secondary structure analysis of PL-porphyrin complex
Set-up: species or system porcine
Details: PL:porphyrin molar ratio 1:2; PL alone 23.12 ± 0.03
Excerpt: The effects of four porphyrin compounds on the secondary structure of PL were further studied by FT-IR spectroscopy. […] Because the regions of amide I band located at 1649–1660, 1615–1637, 1661–1680, 1638–1648, and 1681–1692 cm^−1 after curve fitting represent α-helix, β-sheet, β-turn, random coil and β-antiparallel, respectively, and the signal intensity is high, it is more widely evaluated than the amide II band. […]
Readout label: β-Turn of PL in complex (%)

The following compounds have reported results that may help.
O=C([O-])c1ccc(C2=C3C=CC(=N3)C(c3ccc(C(=O)[O-])cc3)=C3C=CC(=N3)C(=c3ccc(=C([O-])[O-])cc3)c3ccc([n-]3)C(c3ccc(C(=O)[O-])cc3)=C3C=CC2=N3)cc1.[67Cu+2].[H+].[H+].[H+].[H+] = 13.51
Nc1ccc(-c2c3nc(c(-c4ccc(N)cc4)c4ccc([nH]4)c(-c4ccc(N)cc4)c4nc(c(-c5ccc(N)cc5)c5ccc2[nH]5)C=C4)C=C3)cc1 = 18.09

1: O=C(O)c1ccc(-c2c3nc(c(-c4ccc(C(=O)O)cc4)c4ccc([nH]4)c(-c4ccc(C(=O)O)cc4)c4nc(c(-c5ccc(C(=O)O)cc5)c5ccc2[nH]5)C=C4)C=C3)cc1
2: Oc1ccc(-c2c3nc(c(-c4ccc(O)cc4)c4ccc([nH]4)c(-c4ccc(O)cc4)c4nc(c(-c5ccc(O)cc5)c5ccc2[nH]5)C=C4)C=C3)cc1
Problem: Could you point out whether the larger β-Turn of PL in complex belongs to 1 or to 2 ? To answer, give the label that identifies your chosen option.
Result: 2
(2: 19.70%, 1: 10.43%)

====

molecular target: pancreatic lipase (PL) (Sus scrofa, UniProt P00591); construct: lipase (porcine pancreas); purchased Shanghai Yuanye Co., Ltd., Shanghai, China; host or cells: porcine pancreas; assay: FT-IR spectroscopy secondary structure analysis of PL-porphyrin complex; design: species or system porcine; conditions: PL:porphyrin molar ratio 1:2; PL alone 25.48 ± 0.06
Readout label: α-Helix of PL in complex (%)

O=C(O)c1ccc(-c2c3nc(c(-c4ccc(C(=O)O)cc4)c4ccc([nH]4)c(-c4ccc(C(=O)O)cc4)c4nc(c(-c5ccc(C(=O)O)cc5)c5ccc2[nH]5)C=C4)C=C3)cc1 [TCPP, meso-Tetra (4-carboxyphenyl) porphine] = 22.26
Nc1ccc(-c2c3nc(c(-c4ccc(N)cc4)c4ccc([nH]4)c(-c4ccc(N)cc4)c4nc(c(-c5ccc(N)cc5)c5ccc2[nH]5)C=C4)C=C3)cc1 [TAPP] = 12.81
Oc1ccc(-c2c3nc(c(-c4ccc(O)cc4)c4ccc([nH]4)c(-c4ccc(O)cc4)c4nc(c(-c5ccc(O)cc5)c5ccc2[nH]5)C=C4)C=C3)cc1 [THPP] = 13.96
O=C([O-])c1ccc(C2=C3C=CC(=N3)C(c3ccc(C(=O)[O-])cc3)=C3C=CC(=N3)C(=c3ccc(=C([O-])[O-])cc3)c3ccc([n-]3)C(c3ccc(C(=O)[O-])cc3)=C3C=CC2=N3)cc1.[67Cu+2].[H+].[H+].[H+].[H+] [Cu-TCPP] = 15.78

====

biological target: pancreatic lipase (PL) (Sus scrofa); construct: lipase (porcine pancreas); purchased Shanghai Yuanye Co., Ltd., Shanghai, China; host or cells: porcine pancreas; assay: Fluorescence quenching and binding interaction with PL (Stern-Volmer, double logarithmic, Van't Hoff); parameters: species or system porcine; conditions: T 310 K
Readout label: ΔG^0 (kcal/mol)

Oc1ccc(-c2c3nc(c(-c4ccc(O)cc4)c4ccc([nH]4)c(-c4ccc(O)cc4)c4nc(c(-c5ccc(O)cc5)c5ccc2[nH]5)C=C4)C=C3)cc1 [THPP] = -8.023
Nc1ccc(-c2c3nc(c(-c4ccc(N)cc4)c4ccc([nH]4)c(-c4ccc(N)cc4)c4nc(c(-c5ccc(N)cc5)c5ccc2[nH]5)C=C4)C=C3)cc1 [TAPP] = -6.707
O=C(O)c1ccc(-c2c3nc(c(-c4ccc(C(=O)O)cc4)c4ccc([nH]4)c(-c4ccc(C(=O)O)cc4)c4nc(c(-c5ccc(C(=O)O)cc5)c5ccc2[nH]5)C=C4)C=C3)cc1 [TCPP, meso-Tetra (4-carboxyphenyl) porphine] = -7.739
O=C([O-])c1ccc(C2=C3C=CC(=N3)C(c3ccc(C(=O)[O-])cc3)=C3C=CC(=N3)C(=c3ccc(=C([O-])[O-])cc3)c3ccc([n-]3)C(c3ccc(C(=O)[O-])cc3)=C3C=CC2=N3)cc1.[67Cu+2].[H+].[H+].[H+].[H+] [Cu-TCPP] = -6.064

====

biological target: pancreatic lipase (PL) (Sus scrofa); construct: lipase (porcine pancreas); purchased Shanghai Yuanye Co., Ltd., Shanghai, China; host or cells: porcine pancreas; test: Fluorescence quenching and binding interaction with PL (Stern-Volmer, double logarithmic, Van't Hoff); set-up: species or system porcine; conditions: T 298 K
Readout label: n (number of binding sites)

Nc1ccc(-c2c3nc(c(-c4ccc(N)cc4)c4ccc([nH]4)c(-c4ccc(N)cc4)c4nc(c(-c5ccc(N)cc5)c5ccc2[nH]5)C=C4)C=C3)cc1 = 1.05

A: Oc1ccc(-c2c3nc(c(-c4ccc(O)cc4)c4ccc([nH]4)c(-c4ccc(O)cc4)c4nc(c(-c5ccc(O)cc5)c5ccc2[nH]5)C=C4)C=C3)cc1
B: O=C([O-])c1ccc(C2=C3C=CC(=N3)C(c3ccc(C(=O)[O-])cc3)=C3C=CC(=N3)C(=c3ccc(=C([O-])[O-])cc3)c3ccc([n-]3)C(c3ccc(C(=O)[O-])cc3)=C3C=CC2=N3)cc1.[67Cu+2].[H+].[H+].[H+].[H+]
Problem: // compare: A vs B , metric n (number of binding sites), want the smaller Reply briefly: the label of your chosen item.
Result: B

====

target: pancreatic lipase (PL) (Sus scrofa, UniProt P00591); construct: lipase (porcine pancreas); purchased Shanghai Yuanye Co., Ltd., Shanghai, China; host or cells: porcine pancreas; assay: Fluorescence quenching and binding interaction with PL (Stern-Volmer, double logarithmic, Van't Hoff); set-up: species or system porcine; conditions: T 304 K
Readout label: ΔG^0 (kcal/mol)

Examples with their reported ΔG^0 follow.
O=C(O)c1ccc(-c2c3nc(c(-c4ccc(C(=O)O)cc4)c4ccc([nH]4)c(-c4ccc(C(=O)O)cc4)c4nc(c(-c5ccc(C(=O)O)cc5)c5ccc2[nH]5)C=C4)C=C3)cc1 = -7.945
Nc1ccc(-c2c3nc(c(-c4ccc(N)cc4)c4ccc([nH]4)c(-c4ccc(N)cc4)c4nc(c(-c5ccc(N)cc5)c5ccc2[nH]5)C=C4)C=C3)cc1 = -6.938

A: Oc1ccc(-c2c3nc(c(-c4ccc(O)cc4)c4ccc([nH]4)c(-c4ccc(O)cc4)c4nc(c(-c5ccc(O)cc5)c5ccc2[nH]5)C=C4)C=C3)cc1
B: O=C([O-])c1ccc(C2=C3C=CC(=N3)C(c3ccc(C(=O)[O-])cc3)=C3C=CC(=N3)C(=c3ccc(=C([O-])[O-])cc3)c3ccc([n-]3)C(c3ccc(C(=O)[O-])cc3)=C3C=CC2=N3)cc1.[67Cu+2].[H+].[H+].[H+].[H+]
Problem: Of the two listed items, which has the higher ΔG^0? First: A Second: B # respond with the chosen item's label
Result: B
(B: -5.851 kcal/mol, A: -8.363 kcal/mol)
